Values were extracted from ChEMBL document CHEMBL1145453.

In this section we review reported IC50 values for a set of molecules.
Test system: AGS
Measurement protocol: Viability of human AGS cells under normoxic conditions after 24 hrs by MTT assay
Format: functional, cell-based

Worked set:
[
  {
    "Molecule": "Cc1coc2c1C(=O)C(=O)c1c-2ccc2c1CCCC2(C)C [TANSHINONE IIA]",
    "IC50": "10 µM"
  },
  {
    "Molecule": "COC(=O)[C@@]1(C)CCCc2c1ccc1c2C(=O)C(=O)c2c(C)coc2-1 [METHYL TANSHINONATE]",
    "IC50": "> 50 µM"
  }
]

Would you mind telling me what IC50 value was observed for CC(C)C1=CC(=O)c2c(ccc3c2CCCC3(C)C)C1=O [SIBIRIQUINONE B] ? > 50 µM

Would you mind telling me what IC50 value was observed for Cc1cccc2c3c(ccc12)C1=C(C(=O)C3=O)[C@@H](C)CO1 [DIHYDROTANSHINONE I] ? > 50 µM

====

Measurement protocol: Viability of human Hep3B cells under hypoxic conditions after 24 hrs by MTT assay
Type: functional, cell-based, Hep 3B2
Readout type: IC50

[
  {
    "Molecule": "C[C@H]1COC2=C1C(=O)C(=O)c1c2ccc2c1CCCC2(C)C",
    "Readout type": "IC50",
    "Result": "> 30 µM"
  },
  {
    "Molecule": "Cc1cccc2c3c(ccc12)C1=C(C(=O)C3=O)[C@@H](C)CO1 [DIHYDROTANSHINONE I]",
    "Readout type": "IC50",
    "Result": "> 50 µM"
  },
  {
    "Molecule": "Cc1coc2c1C(=O)C(=O)c1c-2ccc2c1CCCC2(C)C",
    "Readout type": "IC50",
    "Result": "> 50 µM"
  },
  {
    "Molecule": "CC(C)C1=CC(=O)c2c(ccc3c2C=CCC3(C)C)C1=O",
    "Readout type": "IC50",
    "Result": "> 50 µM"
  }
]

Now for another entry.
Would you mind telling me what IC50 value was observed for CC(C)C1=CC(=O)c2c(ccc3c2CCCC3(C)C)C1=O ? > 50 µM

====

In this section we review reported IC50 values for a set of molecules.
Target or test system: Hypoxia inducible factors; HIF-1-alpha, HIF-2-alpha (Homo sapiens, UniProt Q16665+Q99814)
Measurement protocol: Inhibition of HIF1 activation in human Hep3B cells assessed as inhibition of hypoxia-induced luciferase expression after 16 hrs by reporter assay
Format: cell-based
Condition details: hep 3b2
Kindly answer with a numeric value in µM, unit omitted.

Worked set:
[
  {
    "Molecule": "CO[C@H]1/C=C\\C=C(/C)C(=O)NC2=CC(=O)C(NCCN(C)C)=C(C[C@@H](C)C[C@H](OC)[C@H](O)[C@@H](C)/C=C(\\C)[C@@H]1OC(N)=O)C2=O",
    "Target or test system": "Hypoxia inducible factors; HIF-1-alpha, HIF-2-alpha (Homo sapiens, UniProt Q16665+Q99814)",
    "Unit of measure": "µM",
    "Result number": 0.061
  },
  {
    "Molecule": "Cc1coc2c1C(=O)C(=O)c1c-2ccc2c(C)cccc12",
    "Target or test system": "Hypoxia inducible factors; HIF-1-alpha, HIF-2-alpha (Homo sapiens, UniProt Q16665+Q99814)",
    "Unit of measure": "µM",
    "Result number": 8.51
  },
  {
    "Molecule": "CC(C)C1=CC(=O)c2c(ccc3c2C=CCC3(C)C)C1=O",
    "Target or test system": "Hypoxia inducible factors; HIF-1-alpha, HIF-2-alpha (Homo sapiens, UniProt Q16665+Q99814)",
    "Unit of measure": "µM",
    "Result number": 0.28
  },
  {
    "Molecule": "Cc1coc2c1C(=O)C(=O)c1c-2ccc2c1CCCC2(C)C",
    "Target or test system": "Hypoxia inducible factors; HIF-1-alpha, HIF-2-alpha (Homo sapiens, UniProt Q16665+Q99814)",
    "Unit of measure": "µM",
    "Result number": 6.18
  },
  {
    "Molecule": "Cc1cccc2c3c(ccc12)C1=C(C(=O)C3=O)[C@@H](C)CO1 [DIHYDROTANSHINONE I]",
    "Target or test system": "Hypoxia inducible factors; HIF-1-alpha, HIF-2-alpha (Homo sapiens, UniProt Q16665+Q99814)",
    "Unit of measure": "µM",
    "Result number": 2.29
  }
]

Now for another entry.
For Hypoxia inducible factors; HIF-1-alpha, HIF-2-alpha (Homo sapiens, UniProt Q16665+Q99814), provide IC50 of COC(=O)[C@@]1(C)CCCc2c1ccc1c2C(=O)C(=O)c2c(C)coc2-1 [METHYL TANSHINONATE] please. 7.34
